test_system: Focal adhesion kinase 1 (Homo sapiens) (UniProt Q05397)
Sequence (Q05397 whole entry, looked up): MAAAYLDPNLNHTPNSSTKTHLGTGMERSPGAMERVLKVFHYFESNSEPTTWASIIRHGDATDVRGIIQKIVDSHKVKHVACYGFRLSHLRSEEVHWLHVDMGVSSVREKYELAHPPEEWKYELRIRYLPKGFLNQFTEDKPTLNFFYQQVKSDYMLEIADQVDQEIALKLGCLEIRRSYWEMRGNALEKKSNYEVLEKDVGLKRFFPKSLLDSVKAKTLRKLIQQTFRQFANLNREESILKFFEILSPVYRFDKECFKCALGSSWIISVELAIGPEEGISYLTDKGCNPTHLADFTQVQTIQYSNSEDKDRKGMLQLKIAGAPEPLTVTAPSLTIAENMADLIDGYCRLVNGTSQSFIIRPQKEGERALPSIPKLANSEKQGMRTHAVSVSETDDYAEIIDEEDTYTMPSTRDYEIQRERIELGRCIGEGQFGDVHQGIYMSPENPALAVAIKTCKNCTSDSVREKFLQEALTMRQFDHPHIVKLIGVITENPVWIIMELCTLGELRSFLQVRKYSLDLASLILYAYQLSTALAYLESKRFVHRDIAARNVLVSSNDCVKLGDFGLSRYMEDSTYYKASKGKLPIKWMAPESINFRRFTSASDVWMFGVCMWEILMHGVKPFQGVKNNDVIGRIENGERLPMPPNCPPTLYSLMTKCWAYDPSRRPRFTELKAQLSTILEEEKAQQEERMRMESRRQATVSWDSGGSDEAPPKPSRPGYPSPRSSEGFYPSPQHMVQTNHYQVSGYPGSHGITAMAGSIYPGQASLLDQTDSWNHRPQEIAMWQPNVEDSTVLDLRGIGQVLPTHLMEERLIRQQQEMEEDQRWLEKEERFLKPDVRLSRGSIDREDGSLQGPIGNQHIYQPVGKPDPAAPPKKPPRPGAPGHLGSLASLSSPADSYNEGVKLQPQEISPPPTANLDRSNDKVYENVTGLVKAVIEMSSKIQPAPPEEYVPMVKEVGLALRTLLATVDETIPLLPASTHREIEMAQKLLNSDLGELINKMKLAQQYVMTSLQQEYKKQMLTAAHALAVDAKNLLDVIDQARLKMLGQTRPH
protocol_details: small-molecule microarray binders of FAK, primary screen, biochemical, 635/667 nm fluorescence, BSA, DTT (AID 1130);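 note: composite of spot emission at 667 nm and signal to noise over triplicate slides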
experimental_context: PTK2 binding, 635 nm fluorescence, higher = more signal
compounds and their reported composite z-score
Provide a numeric answer; units are not to be included.

Worked cases, answers included:
O=C(CS)NCCCCCCNC(=O)[C@@H]1C[C@@H]2C(=O)NCC(=O)N2[C@@H]1c1cccc(OCCO)c1 0.69
CC(C)C(=C=CC[C@H](O)c1ccc(OCCO)cc1)CCO 0.178
Cc1nc2cc(Br)ccc2c(=O)o1 0.201
COc1ccc([C@H]2OC[C@@H]3C[C@@H](Cc4ccccc4)C(=O)N32)cc1 -0.181

Please examine the following record next.
Prompt line: What value of composite z-score has been recorded for this entry: "C=C(/C(=C/C[C@H](OC(C)=O)c1ccccc1OCCO)c1cnc2ccccc2c1)C(C)C"
Response line: 0.119

Where do these numbers come from? They come from PubChem BioAssay.
